Biological target: T1, combined repetitive oligopeptide domain of C. difficile toxin A (residues 2304-2710, CROP) (Clostridium difficile, UniProt P16154 2304-2710)
T1 construct: range 2304-2710; also called AviTag-His6-CROP; TcdA CROP
Assay: SPR, equilibrium analysis, biotinylated AviTag-His6-CROP captured on the chip
Observed Property: pKd
Numbers only, as −log10 of the molar value.

Give one value of pKd per listed binder.
1. anti-CROP gastrobody T12 (designed binder, not shown: small tags and cut ends, also called anti-CROP clone T12; anti-CROP (T12)) DFVLDNEGNPLENGGTYYILSIAGTFGGIRAAPTGNERCPLTVVQSLVFPDKGIGTIISSPYRIRFIAEGHPLSLKFDSFAVIMLCVGIPTEWSVVEDLPEGPAVKIGENKDAMDGWFRLERVSDDEFNNYKLVFCPQQAEDDKCGDIGISIDHDDGTRRLVVSKNKPLVVQFQKLDKESL
2. anti-CROP gastrobody T42 (designed binder, not shown: small tags and cut ends) DFVLDNEGNPLENGGTYYILSVPHQFGGIRAAPTGNERCPLTVVQSRNKWDKGIGTIISSPYRIRFIAEGHPLSLKFDSFAVIMLCVGIPTEWSVVEDLPEGPAVKIGENKDAMDGWFRLERVSDDEFNNYKLVFCPQQAEDDKCGDIGISIDHDDGTRRLVVSKNKPLVVQFQKLDKESL
3. anti-CROP gastrobody G9 (designed binder, not shown: small tags and cut ends) DFVLDNEGNPLENGGTYYILSHPDLFGGIRAAPTGNERCPLTVVQSLYLFDKGIGTIISSPYRIRFIAEGHPLSLKFDSFAVIMLCVGIPTEWSVVEDLPEGPAVKIGENKDAMDGWFRLERVSDDEFNNYKLVFCPQQAEDDKCGDIGISIDHDDGTRRLVVSKNKPLVVQFQKLDKESL

5.77
5.14
5.34
